tested on: Human RBC; format: cell-based
Where a SMILES comes first, the peptide text is derived from it.
property_label: Human RBC (% lysis) 50 μM
Write the number in % lysis without appending the unit.

- molecule: "C[C@H](NC(=O)[C@H](C)NC(=O)[C@H](Cc1ccccc1)NC(=O)[C@H](C)NC(=O)[C@H](C)NC(=O)[C@H](Cc1c[nH]c2ccccc12)NC(=O)[C@H](C)NC(=O)[C@H](C)NC(=O)[C@H](Cc1ccccc1)NC(=O)[C@H](C)NC(=O)[C@H](C)NC(=O)[C@H](CCCCN)NC(=O)[C@H](CCCCN)NC(=O)[C@H](CCCCN)NC(=O)[C@H](CCCCN)NC(=O)[C@H](CCCCN)NC(=O)[C@@H](N)CCCCN)C(N)=O [F17(K6), KKKKKKAAFAAWAAFAA-NH2] (H-KKKKKKAAFAAWAAFAA-NH2; N-terminus assumed)"
  system_name: "Human RBC"
  display_unit: "% lysis"
  Human RBC (% lysis) 50 μM: 0

Please look up its Human RBC (% lysis) 50 μM: C[C@H](NC(=O)[C@H](C)NC(=O)[C@H](Cc1ccccc1)NC(=O)[C@H](C)NC(=O)[C@H](C)NC(=O)[C@H](Cc1ccccc1)NC(=O)[C@H](C)NC(=O)[C@H](C)NC(=O)[C@H](Cc1ccccc1)NC(=O)[C@H](C)NC(=O)[C@H](C)NC(=O)[C@H](CCCCN)NC(=O)[C@H](CCCCN)NC(=O)[C@H](CCCCN)NC(=O)[C@H](CCCCN)NC(=O)[C@H](CCCCN)NC(=O)[C@@H](N)CCCCN)C(N)=O [Peptide 3F17-6K, KKKKKKAAFAAFAAFAA-NH2] (H-KKKKKKAAFAAFAAFAA-NH2; N-terminus assumed)
0

###

Recorded Human RBC (% lysis) 50 μM, one value per entry.
tested on: Human RBC; type: cell-based
Where a SMILES comes first, the peptide text is derived from it.
Value expressed in % lysis; do not type the unit.

- molecule: "C[C@H](NC(=O)[C@H](C)NC(=O)[C@H](Cc1c[nH]c2ccccc12)NC(=O)[C@H](C)NC(=O)[C@H](C)NC(=O)[C@H](Cc1c[nH]c2ccccc12)NC(=O)[C@H](C)NC(=O)[C@H](C)NC(=O)[C@H](Cc1c[nH]c2ccccc12)NC(=O)[C@H](C)NC(=O)[C@H](C)NC(=O)[C@H](CCCCN)NC(=O)[C@H](CCCCN)NC(=O)[C@H](CCCCN)NC(=O)[C@H](CCCCN)NC(=O)[C@H](CCCCN)NC(=O)[C@@H](N)CCCCN)C(N)=O [Peptide W17-6K, KKKKKKAAWAAWAAWAA-NH2] (H-KKKKKKAAWAAWAAWAA-NH2; N-terminus assumed)"
  display_unit: "% lysis"
  data_value: 0

Query for Human RBC: what Human RBC (% lysis) 50 μM does the record show for C[C@H](NC(=O)[C@H](C)NC(=O)[C@H](C)NC(=O)[C@H](Cc1c[nH]c2ccccc12)NC(=O)[C@H](Cc1ccccc1)NC(=O)[C@H](C)NC(=O)[C@H](C)NC(=O)[C@H](C)NC(=O)[C@H](C)NC(=O)[C@H](CCCCN)NC(=O)[C@H](CCCCN)NC(=O)[C@H](CCCCN)NC(=O)[C@H](CCCCN)NC(=O)[C@H](CCCCN)NC(=O)[C@@H](N)CCCCN)C(=O)N[C@@H](C)C(=O)N[C@@H](Cc1ccccc1)C(N)=O [KAFW, KKKKKKAAAAFWAAAAF-NH2] (H-KKKKKKAAAAFWAAAAF-NH2; N-terminus assumed) ?
0

Give recorded Human RBC (% lysis) 50 μM with Human RBC for the following molecule: C[C@H](NC(=O)[C@H](C)NC(=O)[C@H](CCCCN)NC(=O)[C@H](CCCCN)NC(=O)[C@@H](N)CCCCN)C(=O)N[C@@H](C)C(=O)N[C@@H](Cc1ccccc1)C(=O)N[C@@H](C)C(=O)N[C@@H](C)C(=O)N[C@@H](Cc1c[nH]c2ccccc12)C(=O)N[C@@H](C)C(=O)N[C@@H](C)C(=O)N[C@@H](Cc1ccccc1)C(=O)N[C@@H](C)C(=O)N[C@@H](CCCCN)C(=O)N[C@@H](CCCCN)C(=O)N[C@@H](CCCCN)C(N)=O [Peptide F17, KKKAAAFAAWAAFAKKK-NH2] (H-KKKAAAFAAWAAFAKKK-NH2; N-terminus assumed)
0
